- system tested: Bcl-2-like protein 1 (Homo sapiens) (UniProt Q07817)
- Sequence (Q07817 whole entry, looked up): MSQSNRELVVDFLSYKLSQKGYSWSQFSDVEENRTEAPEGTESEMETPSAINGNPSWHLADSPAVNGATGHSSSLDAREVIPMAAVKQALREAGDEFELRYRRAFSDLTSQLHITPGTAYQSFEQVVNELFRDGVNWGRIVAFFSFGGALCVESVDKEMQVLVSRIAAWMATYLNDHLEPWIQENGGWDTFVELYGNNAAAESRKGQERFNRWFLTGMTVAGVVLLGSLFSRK
pIC50: −log10 of the molar value.
readout kind: pIC50

structure string	system tested	readout kind	value observed
O=C1C(Cl)=C(N2CCN(c3ccccc3[N+](=O)[O-])CC2)C(=O)c2ccccc21	Bcl-2-like protein 1 (Homo sapiens) (UniProt Q07817)	pIC50	5.36

* * *

- system tested: Apoptosis regulator Bcl-2 (Homo sapiens)
- measurement protocol: BclXL, Bcl2, Bfl1, BclB binding displacement – biochemical, fluorescence polarization, powder compounds set 1, panel, dose response (AID 504627)
- test conditions: GST-Bcl-2 family protein, FITC-peptide fluorescence polarization; Bcl2; at 50 µM (top of the series)
Active and inactive are the calls of the source.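 The calls were made as follows: active = polarization drop versus untreated control wells larger than 25 mP; inactive = the rest.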
readout kind: polarization signal (mP), lower = inhibition

compound	value observed
Cc1ccc(-c2cc(-c3ccc(F)cc3)c(C#N)c(N)n2)o1	inactive
CNC(CC(=O)c1ccc([N+](=O)[O-])cc1)C(Cl)(Cl)Cl (stereo not drawn)	inactive
Cc1cc(-c2cc(-c3ccc(Cl)cc3)nc(N)c2C#N)co1	inactive

* * *

- system tested: Bcl-2-related protein A1 (Homo sapiens) (UniProt Q16548)
- Sequence (Q16548 whole entry, looked up): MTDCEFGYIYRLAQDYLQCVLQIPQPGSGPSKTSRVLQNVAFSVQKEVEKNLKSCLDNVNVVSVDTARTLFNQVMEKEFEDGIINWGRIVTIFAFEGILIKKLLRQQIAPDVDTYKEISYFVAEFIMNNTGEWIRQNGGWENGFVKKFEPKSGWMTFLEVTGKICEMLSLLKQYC
- measurement protocol: BclXL, Bcl2, Bfl1, BclB binding displacement – biochemical, fluorescence polarization, powder compounds set 1, panel, dose response (AID 504627)
- test conditions: GST-Bcl-2 family protein, FITC-peptide fluorescence polarization; Bfl1; at 50 µM (top of the series)
The source made the active and inactive calls.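 The calls were made as follows: active = polarization drop versus untreated control wells larger than 25 mP; inactive = the rest.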
readout kind: polarization signal (mP), lower = inhibition

compound	system tested	value observed
O=C1NC(=O)C2(Cc3c(nc4ccccn4c3=O)N3CCCCCC32)C(=O)N1Cc1ccccc1 (stereo not drawn)	Bcl-2-related protein A1 (Homo sapiens) (UniProt Q16548)	inactive
Cc1ccc(-c2cc(-c3ccc(F)cc3)c(C#N)c(N)n2)o1	Bcl-2-related protein A1 (Homo sapiens) (UniProt Q16548)	inactive
Oc1ccc(NCc2ccccc2OCc2ccccc2)cc1	Bcl-2-related protein A1 (Homo sapiens) (UniProt Q16548)	inactive
